Just for reference, patent US20250276955A1 is where these values come from.

# TEST TARGET: SARS-COV-2 M^pro (authentic N- and C-termini) (Severe acute respiratory syndrome coronavirus 2)
# ASSAY METHOD TEXT: biochemical
# Format: biochemical
# CONDITION: read-out: Ki, app towards SARS-CoV-2 M^pro, athentic termini; authentic termini
pKi: −log10 of the molar value.
PARAMETER: pKi

>>> recorded_measurement("COc1cc(-c2cccc3[nH]ncc23)cc(C=O)c1OCC(=O)N(C)C")
7.19

---

Items are presented alongside their recorded Ki.
# TEST TARGET: SARS-COV-2 M^pro-His6 (Severe acute respiratory syndrome coronavirus 2)
# ASSAY METHOD TEXT: biochemical
# Format: biochemical
# CONDITION: Table 3, column a (footnote not given); read-out: Kiapp (nM)^a
PARAMETER: Ki

>>> recorded_measurement("CNC(=O)[C@H]1C[C@H](n2c(-c3cncc4ccccc34)nc3cccc(C(=O)NC(C)c4ccc(C(F)(F)F)cc4)c32)C1 (stereo partly shown)")
"45.7 nM"
>>> recorded_measurement("CCC[C@H](NC(=O)c1cccc2nc(-c3cncc4ccccc34)n([C@H]3C[C@H](C(=O)NC)C3)c12)c1cccc(C(F)(F)F)c1")
"29.4 nM"
>>> recorded_measurement("CCC[C@H](NC(=O)c1cccc2nc(-c3cncc4ccccc34)n([C@H]3CC[C@H](C(=O)NC)C3)c12)c1ccc(C(F)(F)F)cc1")
"621 nM"
>>> recorded_measurement("CCC[C@H](NC(=O)c1cccc2nc(-c3cncc4ccccc34)n(C3CCNCC3)c12)c1ccc(C(F)(F)F)cc1")
"1470 nM"

---

# ASSAY METHOD TEXT: Apparent solubility in PBS buffer
# CONDITION: PBS buffer with 2% DMSO, aqueous buffer, kinetic from dmso stock
# solubility >= 50 µM gives met, anything below gives not met

>>> category_label("COc1cc(-c2cccc3[nH]ncc23)cc(C=O)c1OCC(=O)N(C)C")
"met"
>>> category_label("CCC[C@H](NC(=O)c1cccc2nc(-c3cncc4ccccc34)n([C@H]3CC[C@H](C(=O)NC)C3)c12)c1ccc(C(F)(F)F)cc1")
"met"
>>> category_label("COc1cc(-c2cccc3[nH]ncc23)cc(C=O)c1OCC(=O)N1CCC(Oc2cccc(C(=O)N(C)C)c2)C1 (stereo not shown)")
"met"
>>> category_label("CCC[C@H](NC(=O)c1cccc2nc(-c3cncc4ccccc34)n(C3CCC3)c12)c1ccc(C(F)(F)F)cc1")
"not met"
>>> category_label("CNCc1cc(-c2cccc3[nH]ncc23)cc(OC)c1OCC(=O)N(C)C")
"met"
>>> category_label("CCC[C@H](NC(=O)c1cccc2nc(-c3cncc4ccccc34)n([C@H]3C[C@H](C(=O)NC)C3)c12)c1ccc(OC(F)F)cc1")
"not met"

---

# TEST TARGET: human thrombin (Homo sapiens)
# Construct: purchased Sigma-Aldrich MAK243
# ASSAY METHOD TEXT: Thrombin fluorescence assay
# Assay type: biochemical
# CONDITION: fluorescence assay
PARAMETER: Thrombin inhibition

>>> recorded_measurement("CCC[C@H](NC(=O)c1cccc2nc(-c3cncc4ccccc34)n([C@H]3C[C@H](C(=O)NC)C3)c12)c1ccc(OC(F)F)cc1")
"None"
>>> recorded_measurement("COc1cc(-c2cccc3[nH]ncc23)cc(C=O)c1OCC(=O)N(C)C")
"None"
>>> recorded_measurement("CCCC(NC(=O)c1cccc2nc(-c3cncc4ccccc34)n([C@H]3C[C@H](C(=O)NC)C3)c12)c1ccc(C(F)(F)F)cc1 (stereo partly shown) [CDD-1733]")
"None"
>>> recorded_measurement("CCCC(NC(=O)c1cccc2nc(-c3cncc4ccccc34)n([C@H]3C[C@H](C(=O)NC)C3)c12)c1ccc(C(F)(F)F)cc1 (stereo partly shown) [CDD-1732]")
"None"
